Molecular target: BuChE (E.C.3.1.1.8., from equine serum) (Equus caballus, UniProt P81908)
Construct: BuChE (E.C.3.1.1.8., from equine serum)
Sequence (P81908 whole entry): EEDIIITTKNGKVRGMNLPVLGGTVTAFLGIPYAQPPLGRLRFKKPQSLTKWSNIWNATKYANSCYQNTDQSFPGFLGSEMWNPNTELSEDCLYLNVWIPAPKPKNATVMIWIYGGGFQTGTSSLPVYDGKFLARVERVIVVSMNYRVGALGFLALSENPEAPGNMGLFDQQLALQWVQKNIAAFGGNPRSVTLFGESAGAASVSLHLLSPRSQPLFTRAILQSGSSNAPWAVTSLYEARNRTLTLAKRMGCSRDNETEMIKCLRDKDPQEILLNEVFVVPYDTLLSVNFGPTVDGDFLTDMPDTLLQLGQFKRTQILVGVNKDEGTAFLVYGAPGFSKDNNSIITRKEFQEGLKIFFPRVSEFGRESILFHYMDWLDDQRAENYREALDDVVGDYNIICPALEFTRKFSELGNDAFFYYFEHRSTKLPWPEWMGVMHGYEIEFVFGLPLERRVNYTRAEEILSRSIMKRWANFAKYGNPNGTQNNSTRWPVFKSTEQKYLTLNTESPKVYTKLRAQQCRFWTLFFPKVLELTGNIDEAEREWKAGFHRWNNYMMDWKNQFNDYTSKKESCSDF
Assay: BuChE inhibition, modified Ellman colorimetric method
Settings: pH 8.0, 5-min incubation, mean ± SEM of triplicate independent experiments
Let's look at some compounds and their measured pIC50.
Hey, just a heads up that pIC50 is the negative log base 10 of the concentration in molar.

Record excerpt, results attached:
Cc1ccc(NS(=O)(=O)c2ccc(N3C(=O)c4ccccc4C3=O)cc2)cc1
4.07
Cc1ccccc1NS(=O)(=O)c1ccc(N2C(=O)c3ccccc3C2=O)cc1
4.13
O=C1c2ccccc2C(=O)N1c1ccc(S(=O)(=O)N2CCOCC2)cc1
4.25
COc1ccccc1NS(=O)(=O)c1ccc(N2C(=O)c3ccccc3C2=O)cc1
4.35
CC1CCCCN1S(=O)(=O)c1ccc(N2C(=O)c3ccccc3C2=O)cc1 (centres unmarked)
4.12
O=C1c2ccccc2C(=O)N1c1ccc(S(=O)(=O)Nc2ccc(Cl)cc2)cc1
4.11
CC(C)c1ccccc1NS(=O)(=O)c1ccc(N2C(=O)c3ccccc3C2=O)cc1
4.87

Next compound, pIC50 to be filled in.
Per the record, COc1ccc(NS(=O)(=O)c2ccc(N3C(=O)c4ccccc4C3=O)cc2)cc1 has pIC50 of 4.06

* * *

Target: BuChE (E.C.3.1.1.8., from equine serum) (Equus caballus, UniProt P81908)
Construct: BuChE (E.C.3.1.1.8., from equine serum)
Assay: BuChE inhibition, modified Ellman colorimetric method
Details: pH 8.0, 5-min incubation, mean ± SEM of triplicate independent experiments
Quantity measured: IC50

Record excerpt, results attached:
O=C1c2ccccc2C(=O)N1c1ccc(S(=O)(=O)N2CCCC2)cc1 [Compound 8]
> 100 µM
O=C1c2ccccc2C(=O)N1c1ccc(S(=O)(=O)N2CCCCC2)cc1 [Compound 9]
> 100 µM

Next compound, IC50 to be filled in.
Per the record, CCN(CC)S(=O)(=O)c1ccc(N2C(=O)c3ccccc3C2=O)cc1 [Compound 7] has IC50 of > 100 µM

The values you see were collected from paper PMC6009942.
